test.system: Inadl_9, Q8NI35
Sequence (Q8NI35 1530-1615): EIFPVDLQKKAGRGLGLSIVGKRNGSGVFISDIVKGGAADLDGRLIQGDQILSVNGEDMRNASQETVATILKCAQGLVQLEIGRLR
measurement.description: holdup assay
Set-up: key: below the threshold = too weak to quantify, mostly under pKd 3.1 to 4
experimental.parameters: plain residues with an end cap or a label only (N-terminal biotin on a linker: ado-ado)
readout.kind: pKd

For orientation, consider the following solved cases.
>>> test_result("EPAKETTTNV [SLC2A3, P11169]")
"below the threshold"
>>> test_result("LLQEEWETVM [PTH1R, Q03431]")
"below the threshold"
>>> test_result("QKNKDREYYV [NRXN3, Q9HDB5]")
4.56
>>> test_result("PSDSVGKDVF [EGLN1, Q9GZT9]")
"below the threshold"

Which measured pKd value corresponds to FLVTEFNVML [DFNB31, Q9P202] ? below the threshold
